tested on: HIV (HTLV-IIIB strain); test: HIV replication inhibition assay (Test Example 1; MT-4 cells, MTT); type: cell-based; details: HIV (HTLV-IIIB strain), MT-4 cells, MTT, four days; read-out: EC50
pEC50: −log10 of the molar value.
Each item that follows carries a reported pEC50.

>  <STRUCTURE_NOTATION>
COCC[C@H]1Cn2c(C)cc3c(-c4ccc(Cl)cc4)c([C@H](OC(C)(C)C)C(=O)O)c(C)c(c32)N1S(C)(=O)=O

>  <pEC50>
8.85

$$$$
>  <STRUCTURE_NOTATION>
Cc1ccc(-c2c([C@H](OC(C)(C)C)C(=O)O)c(C)c3c4c2cc(C)n4CCN3c2ncc(CN3CCCCC3)cn2)cc1

>  <pEC50>
8.80

$$$$
>  <STRUCTURE_NOTATION>
Cc1ccc(-c2c([C@H](OC(C)(C)C)C(=O)O)c(C)c3c4c2cc(C)n4CCN3c2ncc(C3CCN(C)CC3)cn2)cc1

>  <pEC50>
7.92

$$$$
>  <STRUCTURE_NOTATION>
COc1cnc(N2CCn3c(C)cc4c(-c5ccc(C)cc5)c([C@H](OC(C)(C)C)C(=O)O)c(Cl)c2c43)nc1

>  <pEC50>
8.92

$$$$
>  <STRUCTURE_NOTATION>
Cc1ccc(-c2c([C@H](OC(C)(C)C)C(=O)O)c(C)c3c4c2cc(C)n4CCN3c2ncc(N3CCN(C)CC3)cn2)cc1

>  <pEC50>
8.39

$$$$
>  <STRUCTURE_NOTATION>
COc1cnc(N2CCn3c(C)cc4c(-c5ccc(C)cc5O)c([C@H](OC(C)(C)C)C(=O)O)c(C)c2c43)nc1

>  <pEC50>
7.80

$$$$
>  <STRUCTURE_NOTATION>
Cc1ccc(-c2c([C@H](OC(C)(C)C)C(=O)O)c(C)c3c4c2cc(C)n4CCN3c2ncc(CCN3CCOCC3)cn2)cc1

>  <pEC50>
8.66

$$$$
>  <STRUCTURE_NOTATION>
Cc1c([C@H](OC(C)(C)C)C(=O)O)c(-c2ccc(Cl)cc2)c2cc(C)n3c2c1N(c1ncccn1)CC3

>  <pEC50>
9.27

$$$$
